# System: Trichophyton rubrum
# assay-text: Antifungal activity in vitro, resazurin growth inhibition screen: Trichophyton rubrum
# Format: cell-based
# assay-conditions: Trichophyton rubrum B68183; read-out: Inf. C pIC50 (converted)
metric: IC50

| chemical-smiles | result |
| --- | --- |
| O=C1OCc2ccc(C3=NCc4c(Cl)cc(Cl)cc4-n4cccc43)cc21 | > 64600 nM |
| O=C1CCc2cc(C3=NCc4c(Cl)cccc4-n4cccc43)ccc21 | 182 nM |
| O=C1CCCc2cc(C3=NCc4ccc(Cl)cc4-n4cccc43)ccc21 | > 64600 nM |
| Fc1cccc2c1CN=C(c1ccc3c(c1)OC(F)(F)O3)c1cccn1-2 | 19.5 nM |

Please fill in: IC50 reported for Clc1ccc2c(c1Cl)CN=C(c1ccc3c(c1)CCC3)c1cccn1-2 = 1000 nM

###

# Test system: Trichophyton mentagrophytes
# assay-text: Antifungal activity in vitro, resazurin growth inhibition screen: Trichophyton mentagrophytes
# Assay type: cell-based
# assay-conditions: Trichophyton mentagrophytes B70554; read-out: Inf. G pIC50 (converted)
Would you mind telling me the reported IC50 of each entry?

A selection of reference data follows.
| chemical-smiles | target-entity | IC50 |
| --- | --- | --- |
| O=C1OCc2ccc(C3=NCc4c(Cl)cc(Cl)cc4-n4cccc43)cc21 | Trichophyton mentagrophytes | > 64.6 µM |
| O=C1OCc2ccc(C3=NCc4c(F)cccc4-n4cccc43)cc21 | Trichophyton mentagrophytes | > 64.6 µM |

Let us examine a further case.
Please fill in: IC50 reported for Fc1cccc2c1CN=C(c1ccc3c(c1)CCC(F)(F)O3)c1cccn1-2 = > 64.6 µM
